Target: T1, Human PD-1-His protein (Cat. #10377H08H, Sino Biological) (human, UniProt Q15116 25-167)
T1 construct: Bought protein; also called hPD-1-His; hu PD-1-his; not shown: His tag of the bought protein
T1 sequence (Q15116 25-167 limits assumed): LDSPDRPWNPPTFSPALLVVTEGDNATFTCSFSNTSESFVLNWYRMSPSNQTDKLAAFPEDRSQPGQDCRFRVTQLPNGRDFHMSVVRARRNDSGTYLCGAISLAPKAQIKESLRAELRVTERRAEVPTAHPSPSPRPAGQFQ
Experiment: SPR (Biacore), antibody captured on Protein A chip, PD-1 in flow

{"binder": "Hu32a-15.IgG4AA (antibody, V domains shown, Full-length IgG4-AA, kappa) VH: EVQLVQSGAEVKKPGSSVKVSCKASGGTFSDYEIHWVRQAPGQGLEWMGLFDPETGGIVYNQKFKGRVTITADKSTSTAYMELSSLRSEDTAVYYCAREGYNRDWYFDVWGQGTTVTVSS VL: DIVMTQTPLSLPVTPGEPASISCRSSQSLVHSTGNTYLEWYLQKPGQSPQLLIYKVSNRFSGVPDRFSGSGSGTDFTLKISRVEAEDVGVYYCFQGSHVPYTFGGGTKVEIKR", "readout-units": "s⁻¹", "koff": 0.00252}
{"binder": "Hu23-9.IgG4AA (antibody, V domains shown, Full-length IgG4-AA, kappa; also called Hu23LCDR1 (N28Q)) VH: EVQLVQSGAEVKKPGSSVKVSCKASGGTFSDYEMHWVRQAPGQGLEWMGLIDPETGGTVYNQKFKDRVTITADKSTSTAYMELSSLRSEDTAVYYCARERFSYYGSTSDWYFDVWGQGTTVTVSS VL: DIVMTQTPLSLPVTPGEPASISCRSSQSLVHSQGNTYLEWYLQKPGQSPQLLIYKVSNRFSGVPDRFSGSGSGTDFTLKISRVEAEDVGVYYCFQGSHVPYTFGGGTKVEIKR", "readout-units": "s⁻¹", "koff": 0.000132}
{"binder": "Hu33-1.IgG4AA (antibody, V domains shown, Full-length IgG4-AA, kappa) VH: EVQLVESGGGLVQPGGSLRLSCAASGFTFSSYAMSWVRQAPGKGLEWVATISGGGVDTYYQDNVQGRFTISRDNAKNSLYLQMNSLRAEDTAVYYCARPYGHGYFDVWGQGTTVTVSS VL: DIQMTQSPSSLSASVGDRVTITCRASQDINNFLNWYQQKPGKAPKLLIYYTSSLHSGVPSRFSGSGSGTDFTLTISSLQPEDFATYYCQQGNTLPWTFGGGTKVEIKR", "readout-units": "s⁻¹", "koff": 0.00128}
